- assay remarks: Mouse oral pharmacokinetic study
- Type: in vivo, male BALB/c mice
- measurement setup: male, BALB/c, mouse; brain; 40 mg/kg PO single dose
- Procedure: Test system. Healthy male BALB/c mice (8-12 weeks old) weighing between 20 to 35 g were procured from In vivo biosciences, Bengaluru, India. Maximum three mice were housed in each polycarbonate cage. […] The temperature and humidity were recorded by auto-controlled data logger system. […] The weighed quantity (39.22 mg) of compound NEU-617 for p.o. dosing was added in a mortar. […] The areas under the concentration time curve (AUClast and AUCinf) were calculated by linear trapezoidal rule.
reported metric: Tmax (min)
Write the answer as a number in min, unit excluded.

[Q] Please list Tmax recorded for the compound Fc1cccc(COc2ccc(Nc3ncnc4ccc(-c5cccc(N6CCOCC6)c5)cc34)cc2Cl)c1 [Compound 23a]
[A] 30

###

- Tested on: P. falciparum D6
- assay remarks: P. falciparum D6 assay
- Assay type: cell-based
- measurement setup: strain D6
Overview of recorded EC50 for various compounds
Write the answer as a number in nM, unit excluded.

Example entries and their recorded answers appear below.
1. CN1CCN(S(=O)(=O)c2ccc(-c3ccc4ncnc(Nc5ccc(OCc6ccccc6)cc5)c4c3)cc2)CC1: 41
2. Fc1cccc(COc2ccc(Nc3ncnc4ccc(-c5cccc(N6CCSCC6)c5)cc34)cc2Cl)c1: 440
3. COc1ccc(Nc2ncnc3ccc(-c4ccc(S(=O)(=O)N5CCN(C)CC5)cc4)cc23)cc1Cl: 33
4. O=S(=O)(c1cccc(-c2ccc3ncnc(Nc4ccc(OCc5cccc(F)c5)c(Cl)c4)c3c2)c1)N1CCCC1 [Compound 10o]: 190
5. O=C(c1cccc(-c2ccc3ncnc(Nc4ccc(OCc5cccc(F)c5)c(Cl)c4)c3c2)c1)N1CCCC1: 69
6. O=C(c1cncc(-c2ccc3ncnc(Nc4ccc(OCc5cccc(F)c5)c(Cl)c4)c3c2)c1)N1CCOCC1: 370
7. CN1CCN(S(=O)(=O)c2cccc(-c3ccc4ncnc(Nc5ccc(OCc6cccc(F)c6)c(Cl)c5)c4c3)c2)CC1: 38
8. CC(C)(C)OC(=O)N1CCN(S(=O)(=O)c2ccc(-c3ccc4ncnc(Nc5ccc(OCc6cccc(F)c6)c(Cl)c5)c4c3)cc2)CC1: 270

[Q] Please list EC50 recorded for the compound Cl.O=S(=O)(c1ccc(-c2ccc3ncnc(Nc4ccc(OCc5ccccc5F)c(Cl)c4)c3c2)cc1)N1CCOCC1 [Compound 20i, Hydrochloride]
[A] 130

[Q] Please list EC50 recorded for the compound `CC(C)(C)OC(=O)N1CCN(c2ccc(-c3ccc4ncnc(Nc5ccc(OCc6cccc(F)c6)c(Cl)c5)c4c3)cc2)CC1`
[A] 860

[Q] Please list EC50 recorded for the compound `CN1CCN(S(=O)(=O)c2ccc(-c3ccc4ncnc(Nc5ccc6cnn(Cc7cccc(F)c7)c6c5)c4c3)cc2)CC1`
[A] 39

[Q] Please list EC50 recorded for the compound `Fc1cccc(Cn2ncc3ccc(Nc4ncnc5ccc(-c6cccc(N7CCOCC7)c6)cc45)cc32)c1`
[A] 910

[Q] Please list EC50 recorded for the compound `Fc1cccc(COc2ccc(Nc3ncnc4ccc(-c5cccc(-n6cccn6)c5)cc34)cc2Cl)c1`
[A] 19000

[Q] Please list EC50 recorded for the compound `Cc1cc(-c2ccc3ncnc(Nc4ccc(OCc5cccc(F)c5)c(Cl)c4)c3c2)cnc1N1CCOCC1`
[A] 260

[Q] Please list EC50 recorded for the compound O=S(=O)(c1ccc(-c2ccc3ncnc(Nc4ccc(OCc5cccc(F)c5)c(Cl)c4)c3c2)cc1)N1CCCC1 [Compound 10n]
[A] 200

###

- System: HepG2 cells
- assay remarks: HepG2 cell toxicity (MTT) assay
- Type: cell-based
- measurement setup: Table 13; read-out: HepG2 TC50
Overview of recorded CC50 for various molecules
Write the answer as a number in µM, unit excluded.

1) CN1CCCN(S(=O)(=O)c2ccc(-c3ccc4c(Nc5ccc(OCc6cccc(F)c6)c(Cl)c5)nncc4c3)cc2)CC1: 3.4
2) CN1CCCN(S(=O)(=O)c2ccc(-c3ccc4nncc(Nc5ccc(OCc6cccc(F)c6)c(Cl)c5)c4c3)cc2)CC1: 7.3

Switching to the query record.
[Q] Please list CC50 recorded for the molecule `Fc1cccc(COc2ccc(Nc3ccnc4ccc(-c5cccc(N6CCOCC6)c5)cc34)cc2Cl)c1`
[A] 10

###

Overview of recorded EC50 for various molecules
- System: L. major promastigote
- assay remarks: L. major promastigote assay
- Format: cell-based
- measurement setup: Leishmania major
Counter-ions that a name gives are not always drawn.
Write the answer as a number in nM, unit excluded.

Example entries and their recorded answers appear below.
1) O=S(=O)(c1ccc(-c2ccc3nccc(Nc4ccc(OCc5ccccc5)c(Cl)c4)c3c2)cc1)N1CCOCC1 [NEU-945]: 200
2) O=C(c1ccc(-c2ccc3ncnc(Nc4ccc(OCc5cccc(F)c5)c(Cl)c4)c3c2)cc1)N1CCOCC1 [Compound 23f]: 850
3) Fc1cccc(COc2ccc(Nc3ccnc4ccc(-c5cccc(N6CCOCC6)c5)cc34)cc2Cl)c1 [NEU-959]: 900
4) CN1CCN(S(=O)(=O)c2ccc(-c3ccc4ncnc(Nc5ccc(OCc6cccc(F)c6)c(Cl)c5)c4c3)cc2)CC1 [Compound 10p]: 2800

[Q] Please list EC50 recorded for the molecule CN1CCN(S(=O)(=O)c2ccc(-c3ccc4c(Nc5ccc(OCc6cccc(F)c6)c(Cl)c5)ccnc4c3)cc2)CC1 [NEU-961]
[A] 1000

[Q] Please list EC50 recorded for the molecule O=C(c1ccc(-c2ccc3ncnc(Nc4ccc(OCc5cccc(F)c5)c(Cl)c4)c3c2)cc1)N1CCCCC1 [Compound 23l]
[A] 1000

[Q] Please list EC50 recorded for the molecule c1ccc(COc2ccc(Nc3ncnc4ccc(-c5cccc(N6CCOCC6)c5)cc34)cc2)cc1 [Compound 23n]
[A] 2700

[Q] Please list EC50 recorded for the molecule CN1CCN(S(=O)(=O)c2ccc(-c3ccc4nccc(Nc5ccc(OCc6cccc(F)c6)c(Cl)c5)c4c3)cc2)CC1 [NEU-960]
[A] 600

[Q] Please list EC50 recorded for the molecule COc1cccc(COc2ccc(Nc3ncnc4ccc(-c5ccc(S(=O)(=O)N6CCOCC6)cc5)cc34)cc2Cl)c1 [Compound 20k, Hydrochloride]
[A] 15000

[Q] Please list EC50 recorded for the molecule Clc1cc(Nc2ncnc3ccc(-c4cccc(N5CCOCC5)c4)cc23)ccc1OCc1ccccc1 [Compound 23m]
[A] 6600

[Q] Please list EC50 recorded for the molecule CN1CCCN(S(=O)(=O)c2ccc(-c3ccc4c(Nc5ccc(OCc6cccc(F)c6)c(Cl)c5)nncc4c3)cc2)CC1 [NEU-1042, Formic Acid]
[A] 410

[Q] Please list EC50 recorded for the molecule c1ccc(Nc2ncnc3ccc(-c4cccc(N5CCOCC5)c4)cc23)cc1 [Compound 23o]
[A] 9400

###

- Tested on: P. fal
- assay remarks: P. fal assay of Table 13 (strain not given)
- Type: cell-based, P. falciparum
Overview of recorded pEC50 for various molecules
Give only the number. pEC50 is defined as minus log10 of concentration in molar units.

[Q] Please list pEC50 recorded for the molecule `CN1CCCN(S(=O)(=O)c2ccc(-c3ccc4ncc(C#N)c(Nc5ccc(OCc6cccc(F)c6)c(Cl)c5)c4c3)cc2)CC1`
[A] 7.33

[Q] Please list pEC50 recorded for the molecule `CN1CCN(S(=O)(=O)c2ccc(-c3ccc4ncc(C#N)c(Nc5ccc(OCc6cccc(F)c6)c(Cl)c5)c4c3)cc2)CC1`
[A] 7.09

###

- System: L. major promastigote
- assay remarks: L. major promastigote assay
- Assay type: cell-based
- measurement setup: Leishmania major
Where a name gives a salt, the structure may show the parent alone.
reported metric: pEC50
Give only the number. pEC50 is defined as minus log10 of concentration in molar units.

Example entries and their recorded answers appear below.
1. Fc1cccc(COc2ccc(Nc3ccnc4cc(-c5cccc(N6CCOCC6)c5)ccc34)cc2Cl)c1 [NEU-942]: 5.85
2. O=S(=O)(c1ccc(-c2ccc3ncnc(Nc4ccc(OCc5ccc(C(F)(F)F)c(F)c5)c(Cl)c4)c3c2)cc1)N1CCOCC1 [Compound 20l, Hydrochloride]: 4.85

Switching to the query record.
[Q] Please list pEC50 recorded for the compound Cc1ccc(Nc2ncnc3ccc(-c4ccc(S(=O)(=O)N5CCOCC5)cc4)cc23)cc1 [Compound 20b, Hydrochloride]
[A] 6.35

###

Overview of recorded pEC50 for various compounds
- Tested on: L. major promastigote
- assay remarks: L. major promastigote assay
- Assay type: cell-based
- measurement setup: Leishmania major
Give only the number. pEC50 is defined as minus log10 of concentration in molar units.

Example entries and their recorded answers appear below.
1) Fc1cccc(COc2ccc(Nc3ncnc4ccc(-c5cccc(N6CCOCC6)c5)cc34)cc2Cl)c1 [Compound 23a]: 5.52
2) CN1CCCN(S(=O)(=O)c2ccc(-c3ccc4nncc(Nc5ccc(OCc6cccc(F)c6)c(Cl)c5)c4c3)cc2)CC1: 5.39
3) O=C(c1cccc(-c2ccc3ncnc(Nc4ccc(OCc5cccc(F)c5)c(Cl)c4)c3c2)c1)N1CCCCC1 [Compound 23k]: 5.46
4) CN1CCN(S(=O)(=O)c2ccc(-c3ccc4c(Nc5ccc(OCc6cccc(F)c6)c(Cl)c5)nccc4c3)cc2)CC1: 5.57

Switching to the query record.
[Q] Please list pEC50 recorded for the compound CS(=O)(=O)c1ccc(-c2ccc3ncnc(Nc4ccc(OCc5cccc(F)c5)c(Cl)c4)c3c2)cc1 [Compound 10t]
[A] 5.80
